Kindly state O. volvulus iPGM PIC50, M for each of the entries shown.
# assayed system: UniProt:I6LDA6
# Sequence (I6LDA6 whole entry, looked up): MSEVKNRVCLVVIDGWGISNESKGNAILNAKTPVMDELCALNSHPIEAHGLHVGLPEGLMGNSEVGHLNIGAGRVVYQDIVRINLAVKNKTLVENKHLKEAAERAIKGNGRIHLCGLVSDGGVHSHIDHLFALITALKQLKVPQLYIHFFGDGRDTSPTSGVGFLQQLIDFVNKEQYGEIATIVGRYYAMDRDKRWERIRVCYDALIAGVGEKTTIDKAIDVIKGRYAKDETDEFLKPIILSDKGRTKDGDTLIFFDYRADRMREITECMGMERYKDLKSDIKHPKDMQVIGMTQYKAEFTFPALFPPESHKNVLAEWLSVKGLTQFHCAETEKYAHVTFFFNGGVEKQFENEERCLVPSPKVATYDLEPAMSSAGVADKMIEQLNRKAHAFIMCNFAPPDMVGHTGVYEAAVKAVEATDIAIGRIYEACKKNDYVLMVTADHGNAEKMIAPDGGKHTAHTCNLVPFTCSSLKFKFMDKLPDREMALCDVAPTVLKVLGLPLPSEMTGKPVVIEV
# experiment description: biochemical
Where a SMILES comes first, the peptide text is derived from it. Bridges are numbered along the chain shown (N, C = ends). [ ]: non-standard residue; d: D form.

>>> reported_result("CC(C)[C@@H]1NC(=O)[C@H](C)NC(=O)[C@@H](Cc2ccc(O)cc2)NC(=O)CSC[C@@H](C(=O)N[C@@H](CCCNC(=N)N)C(=O)N[C@H](C(=O)N[C@@H](CS)C(=O)NCC(N)=O)[C@@H](C)O)NC(=O)[C@H](CC(N)=O)NC(=O)[C@@H]2CCCN2C(=O)[C@H](Cc2c[nH]c3ccccc23)NC1=O [Bm-7] ({CH2CO}-[dY]AVWPNCRTCG-NH2; thioether N-7)")
"5.37 ± 0.52 M"

Then this compound:
Exam item: Which measured O. volvulus iPGM PIC50, M value corresponds to CC(C)C[C@H](NC(=O)[C@H](Cc1ccc(O)cc1)NC(=O)[C@@H]1CSCC(=O)N[C@H](Cc2ccc(O)cc2)C(=O)N[C@@H](CC(=O)O)C(=O)N[C@@H](Cc2ccc(O)cc2)C(=O)N2CCC[C@H]2C(=O)NCC(=O)N[C@@H](CC(=O)O)C(=O)N[C@@H](Cc2ccc(O)cc2)C(=O)N1)C(=O)N[C@@H](Cc1ccc(O)cc1)C(=O)NCC(=O)N[C@H](C(=O)N[C@@H](CS)C(N)=O)[C@@H](C)O [Ce-2a] ?
Marked response: 7.31 ± 0.09 M

---

# assayed system: E. coli iPGM (Escherichia coli, UniProt P37689)
# Sequence (P37689 whole entry, looked up): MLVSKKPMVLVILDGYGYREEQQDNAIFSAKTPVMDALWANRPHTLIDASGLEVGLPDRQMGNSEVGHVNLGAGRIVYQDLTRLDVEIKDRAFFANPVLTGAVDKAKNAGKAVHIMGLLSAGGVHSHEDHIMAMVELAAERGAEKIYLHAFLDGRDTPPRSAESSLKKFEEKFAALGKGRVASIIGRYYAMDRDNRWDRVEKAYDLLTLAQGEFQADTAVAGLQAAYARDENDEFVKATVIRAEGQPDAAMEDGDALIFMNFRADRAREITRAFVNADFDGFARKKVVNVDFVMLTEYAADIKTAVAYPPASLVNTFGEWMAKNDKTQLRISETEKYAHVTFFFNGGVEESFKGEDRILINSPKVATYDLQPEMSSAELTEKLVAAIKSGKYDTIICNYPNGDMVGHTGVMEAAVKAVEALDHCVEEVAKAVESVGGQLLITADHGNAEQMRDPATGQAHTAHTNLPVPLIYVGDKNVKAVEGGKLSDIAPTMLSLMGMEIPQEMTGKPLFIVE
# experiment description: biochemical
Where a SMILES comes first, the peptide text is derived from it. Bridges are numbered along the chain shown (N, C = ends). [ ]: non-standard residue; d: D form.
Kindly state E. coli iPGM PIC50, M for each of the entries shown.
Give bare numbers, in M.

// known answers, use as guide
>>> reported_result("CC(C)C[C@@H]1NC(=O)[C@@H](Cc2ccc(O)cc2)NC(=O)CSC[C@@H](C(=O)N[C@@H](CC(N)=O)C(=O)N[C@H](C(=O)N[C@@H](CS)C(N)=O)[C@@H](C)O)NC(=O)[C@H](CC(N)=O)NC(=O)[C@@H]2CCCN2C(=O)[C@H](Cc2c[nH]c3ccccc23)NC(=O)[C@H](CCC(=O)O)NC1=O [Bm-4a] ({CH2CO}-[dY]LEWPNCNTC-NH2; thioether N-7)")
5.58
>>> reported_result("C[C@@H](O)[C@H](NC(=O)[C@H](CO)NC(=O)[C@@H]1CSCC(=O)N[C@H](Cc2ccc(O)cc2)C(=O)N2CCC[C@H]2C(=O)N[C@@H](CCC(=O)O)C(=O)N[C@@H](Cc2c[nH]c3ccccc23)C(=O)N2CCC[C@H]2C(=O)N[C@@H](CC(N)=O)C(=O)N1)C(=O)N[C@@H](CS)C(=O)NCC(N)=O [Bm-6] ({CH2CO}-[dY]PEWPNCSTCG-NH2; thioether N-7)")
5.55

Exam item: Which measured E. coli iPGM PIC50, M value corresponds to CC(C)[C@@H]1NC(=O)[C@H](C)NC(=O)[C@@H](Cc2ccc(O)cc2)NC(=O)CSC[C@@H](C(=O)N[C@@H](CCCNC(=N)N)C(=O)N[C@H](C(=O)N[C@@H](CS)C(=O)NCC(N)=O)[C@@H](C)O)NC(=O)[C@H](CC(N)=O)NC(=O)[C@@H]2CCCN2C(=O)[C@H](Cc2c[nH]c3ccccc23)NC1=O [Bm-7] ({CH2CO}-[dY]AVWPNCRTCG-NH2; thioether N-7) ?
Marked response: 5.12
